test_method_notes: HepG2 cytotoxicity, primary screen, cytotoxicity control for P. falciparum antimalarial project, cell-based, ATP luminescence (AID 2303);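 also: 0% = DMSO wells and 100% = digitonin-killed cells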
setup_conditions: HepG2 viability, 24-48 h, at 10 µM, stronger effect = higher value
The source made the active and inactive calls.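 The calls were made as follows: active = inhibition above 50%; inactive = the rest.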
Measured inhibition by item
quantity_kind: inhibition

INSERT INTO results (compound, quantity_kind, recorded_value) VALUES
  ('Cc1cc(-c2ccc(CNC3Cc4ccccc4C3)cc2)ccc1S(=O)(=O)NCCN1CCCC1', 'inhibition', '99% (active)'),
  ('CC(C)COc1ccc(Cl)cc1Cc1ccc(-c2nc3ccc(F)cc3[nH]2)o1', 'inhibition', '35% (inactive)'),
  ('Clc1ccccc1CN1CCC(NCc2cccc(-n3ccnc3)c2)CC1', 'inhibition', '6% (inactive)'),
  ('Cc1cc(-c2cc3nc4c(c(=O)n3[nH]2)CCCC4)c(C)o1', 'inhibition', '4% (inactive)'),
  ('CCc1ccc(CN(Cc2ccc(C)cc2)Cc2ccc(NC(C)=O)cc2)cc1', 'inhibition', '6% (inactive)'),
  ('Cc1onc(-c2ccccc2)c1-c1nc(NC2CCCC(C)C2)no1 (stereo not given)', 'inhibition', '22% (inactive)'),
  ('O=C(NC1CCN(Cc2ccccc2)CC1)c1ccc(-c2nc3cc(Cl)c(Cl)cc3[nH]2)c(F)c1', 'inhibition', '4% (inactive)'),
  ('CCOc1cc(Cc2cnc(N)nc2N)cc(OCC)c1-n1cccc1', 'inhibition', '-1% (inactive)'),
  ('COc1cc(C(F)(F)F)nc2c(CNCCCNc3cc(=O)c4ccccc4[nH]3)scc12', 'inhibition', '-7% (inactive)'),
  ('CS(=O)(=O)CCNCc1nc(-c2ccc3c(Nc4ccc(Cl)cc4F)ccnc3c2)cs1', 'inhibition', '19% (inactive)'),
  ('Cc1cccc(C(=O)NCCCN2CCC(NC(=O)/C=C/c3ccc(Cl)c(Cl)c3)CC2)c1', 'inhibition', '39% (inactive)'),
  ('CNC(=O)c1c(NC(=O)c2cccs2)sc2c1CCCC2', 'inhibition', '2% (inactive)'),
  ('COc1ccc(CCNCCCCCCNCCc2ccc(Cl)c(Cl)c2)cc1OC', 'inhibition', '59% (active)'),
  ('CN1CCN(c2ccnc3ccc(NC(=O)Nc4ccc5ccccc5c4)cc23)CC1', 'inhibition', '2% (inactive)'),
  ('O=C(Nc1ccc(-c2nc3ccccc3[nH]2)cc1)c1ccc(N2CCOCC2)c([N+](=O)[O-])c1', 'inhibition', '47% (inactive)'),
  ('Cc1cccc2[nH]c(-c3cccc(-c4cccc(C(=O)NCCc5cn(C)cn5)c4)c3)nc12', 'inhibition', '12% (inactive)'),
  ('CCCCNc1cc(NCCCC)c2c(n1)[nH]c1ccccc12', 'inhibition', '13% (inactive)'),
  ('O=C(Nc1ccc(C2=NC3CCCCC3N2)cc1)Nc1ccc(C2=NC3CCCCC3N2)cc1 (stereo not given)', 'inhibition', '7% (inactive)'),
  ('O=C(/C=C/c1ccc(Cl)c(Cl)c1)NCCCCCN1CCCN(C(=O)Nc2cc(Cl)cc(Cl)c2)CC1', 'inhibition', '53% (active)'),
  ('Cc1cc(Nc2ccc3ccccc3c2)n2ncnc2n1', 'inhibition', '11% (inactive)'),
  ('Cc1ccc(C)c(NC(=O)CC2C(=O)N(c3ccccc3)C(=S)N2Cc2ccco2)c1 (stereo not given)', 'inhibition', '9% (inactive)'),
  ('CC(C)CCCC(C)(C)NC[C@@H](O)[C@H](Cc1ccccc1)NC(=O)c1cccc(CCC2CC2)c1', 'inhibition', '100% (active)'),
  ('CNC(=O)c1cncc(/C=C/c2ccccc2S(N)(=O)=O)c1', 'inhibition', '17% (inactive)'),
  ('O=C(/C=C/c1cccs1)NCC(NCCCNc1cc(=O)c2ccccc2[nH]1)c1cc(Br)cc(Br)c1 (stereo not given)', 'inhibition', '0% (inactive)'),
  ('CCN(CC)CCn1c(=N)n(CC(=O)c2ccc(-c3ccccc3)cc2)c2ccccc21', 'inhibition', '32% (inactive)'),
  ('Cc1cccc2[nH]c(-c3cccc(-c4cccc(NC(=O)Nc5cccc(C#N)c5)c4)c3)nc12', 'inhibition', '22% (inactive)'),
  ('Cc1nc2nc(N)nc(N)c2c(C)c1Cc1cccc(C#N)c1', 'inhibition', '64% (active)'),
  ('COC(=O)Cn1c2ccccc2c2c(N)c(C(=O)OC)c(C)nc21', 'inhibition', '0% (inactive)'),
  ('NCC1CCCN1Cc1cccc(-c2ccc(-c3nc4ccccc4[nH]3)s2)c1 (stereo not given)', 'inhibition', '16% (inactive)'),
  ('CCCNC[C@@H](O)[C@H](Cc1ccccc1)NC(=O)c1cc2c3c(c1)c(CC)cn3CCS(=O)(=O)N2C', 'inhibition', '-4% (inactive)'),
  ('O=C(NCCCCNCC(Cc1cccc(O)c1)c1ccccc1)c1ccc(NC(=O)c2ccc(Cl)cc2)cc1 (stereo not given)', 'inhibition', '-1% (inactive)'),
  ('CCCCn1c(N)c(N(Cc2ccco2)C(=O)C=Cc2cc(OC)c3c(c2)OCCO3)c(=O)[nH]c1=O', 'inhibition', '4% (inactive)'),
  ('Cc1cc2cc(-c3ccc(CN)cc3)ccc2nc1N', 'inhibition', '18% (inactive)'),
  ('COc1ccc2nccc(C(=O)NC3CCC(CCN4CCc5cc(C#N)ccc5C4)CC3)c2c1 (stereo not given)', 'inhibition', '12% (inactive)'),
  ('COc1cc2nc(N3CCN(C(=O)c4cccc(I)c4)CC3)nc(N)c2cc1OC', 'inhibition', '11% (inactive)');

The reported measurements were obtained from PubChem BioAssay.
